// reported B/P ratio divided by MDCK efflux ratio at 10 μM for each item listed
Assay: Brain (B)-Plasma (P) dialysis
Assay type: in vitro ADME
Conditions: B/P ratio divided by MDCK efflux ratio; read-out: Brain-Plasma Dialysis B/P/efflux ratio (ER)
Simply state the number, no unit and no words.

Worked cases, answers included:
# Compound, Observed
data = [
    ("Br.CN(C)Cc1cc2c([nH]c(=O)c3cccc(O)c32)s1 [Example 2]", 0.03),
    ("O=c1[nH]c2sc(CN3CCSC3)cc2c2c(O)cccc12 [Example 12]", 0.79),
    ("O=c1[nH]c2sc(CN3CCC(Br)CC3)cc2c2c(O)cccc12 [Example 15]", 1.12),
    ("O=c1[nH]c2sc(CN3CCCCC3)cc2c2c(O)cccc12 [Example 11]", 0.12),
]

Given the compound O=c1[nH]c2sc(CN3CCOCC3)cc2c2c(O)cccc12 [Example 10] , what is its reported B/P ratio divided by MDCK efflux ratio at 10 μM?
0.04
